Values were extracted from patent US11214803B2.

test system: Yap1 mRNA; assay: Dose-dependent inhibition of human Yap1 in A-431 cells (Example 8, 10,000 cells per well, RTS4814); assay type: cell-based; settings: A-431 cells, free uptake, approximately 48 hours, RTS4814; linear regression on log/linear plot
Strand notation (5' to 3'): a small letter for the sugar, then the base; units joined by * are phosphorothioate-linked, units joined directly phosphodiester-linked; [ ] holds rarer units or linkages, { } end groups; capitals alone tell only the bases. k = constrained ethyl (cEt); [5mC] = 5-methylcytosine; d = 2'-deoxy (DNA)
Metric Name: pIC50
Schema: pIC50 number; meaning minus log10 of the concentration expressed in molar units.

input: Please give the measured pIC50 for this substance: 1075048 (antisense kG*kT*kA*dA*dA*dA*dT*dT*dA*dG*dA*d[5mC]*dT*k[5mC]*k[5mC]*k[5mC]) [compound 1075048]
output: 7.00

input: Fill blank: measured pIC50 of the substance 1076524 (kA*kA*kT*dT*dT*dA*dT*dA*dT*d[5mC]*dA*dG*dG*kT*k[5mC]*kA; antisense) [compound 1076524] is ____.
output: 7.00

input: Entry 1076458 (k[5mC]*kT*kT*dA*dA*dT*dT*dA*dG*d[5mC]*d[5mC]*dT*d[5mC]*kA*kG*kT; antisense) [compound 1076458] : reported pIC50 = ?
output: 6.70

---

Hi there, I'd appreciate the recorded YAP1 (% UTC) for every entry that follows.
system: Yap1 mRNA; experiment: Antisense inhibition of human Yap1 in A-431 cells by cEt gapmers, single dose (Example 4, RTS4814); assay type: cell-based; settings: Table 14; A-431 cells, 5,000 cells per well, free uptake, 2,000 nM, approximately 48 hours; RTS4814; normalized to RIBOGREEN; Yap1 mRNA relative to untreated control; * = targets amplicon region of primer probe set
Strand notation (5' to 3'): a small letter for the sugar, then the base; units joined by * are phosphorothioate-linked, units joined directly phosphodiester-linked; [ ] holds rarer units or linkages, { } end groups; capitals alone tell only the bases. k = constrained ethyl (cEt); [5mC] = 5-methylcytosine; d = 2'-deoxy (DNA)
For clarity, give the value followed by its unit.

input: Need YAP1 (% UTC) of 1074304 (antisense k[5mC]*kT*kG*d[5mC]*d[5mC]*dG*dA*dA*dG*d[5mC]*dA*dG*dT*kT*k[5mC]*kT) [Compound 1074304] , thanks.
output: 109 % UTC

input: If you can, please state the reported YAP1 (% UTC) value of 1074400 (antisense kG*kA*kT*dT*dT*dA*dG*dA*dA*dT*dT*d[5mC]*dA*kG*kT*k[5mC]) [Compound 1074400] .
output: 42 % UTC

input: What YAP1 (% UTC) value was documented for this substance, 1075360 (kA*kG*kG*d[5mC]*dA*dA*d[5mC]*dA*dA*d[5mC]*dA*dT*d[5mC]*kT*kA*kA; antisense) [Compound 1075360] ?
output: 50 % UTC

input: Form field: reported YAP1 (% UTC) of 1074688 (antisense kT*k[5mC]*k[5mC]*d[5mC]*d[5mC]*d[5mC]*dT*dA*dA*dG*d[5mC]*dT*dA*kA*kA*kG) [Compound 1074688]
output: 83 % UTC

input: Can you share its YAP1 (% UTC)? I mean this substance: 1076128 (kT*k[5mC]*kT*dA*dA*dA*d[5mC]*d[5mC]*dT*dA*dA*dA*dG*kA*k[5mC]*kT; antisense) [Compound 1076128]
output: 118 % UTC

input: # query: YAP1 (% UTC) of entry 1075712 (kG*kA*k[5mC]*dG*d[5mC]*dG*dA*dA*dA*dT*dA*d[5mC]*dT*kT*kA*k[5mC]; antisense) [Compound 1075712]
output: 7 % UTC

input: Using the record for 1074272 (antisense kT*kA*kT*dA*dG*dT*dA*dA*dA*dT*dT*dT*d[5mC]*kT*k[5mC]*k[5mC]) [Compound 1074272] , report its YAP1 (% UTC).
output: 16 % UTC

input: Can you share its YAP1 (% UTC)? I mean this substance: 1075584 (kA*kA*kT*dA*dA*dT*dT*dG*dA*d[5mC]*d[5mC]*dT*dA*kG*k[5mC]*kA; antisense) [Compound 1075584]
output: 57 % UTC

input: State the recorded YAP1 (% UTC) for this entry: 1075392 (kG*kA*k[5mC]*dG*dG*dG*dT*dG*dA*dA*d[5mC]*d[5mC]*dT*kG*kT*kT; antisense) [Compound 1075392]
output: 95 % UTC

input: Recorded YAP1 (% UTC) of 1076064 (kT*kA*kT*dG*dA*dA*d[5mC]*dA*dA*dT*dG*dT*dA*k[5mC]*kT*k[5mC]; antisense) [Compound 1076064] , please.
output: 5 % UTC

input: Query (substance): 1074752 (k[5mC]*kA*kT*dT*dA*dG*dG*dA*dA*d[5mC]*dA*dA*dG*kG*kA*k[5mC]; antisense) [Compound 1074752] ; field requested: YAP1 (% UTC)
output: 10 % UTC

input: For 1074144 (antisense kA*kG*k[5mC]*dG*dG*d[5mC]*dG*dA*d[5mC]*dG*dG*d[5mC]*dT*kG*k[5mC]*kG) [Compound 1074144] , what is its reported YAP1 (% UTC)?
output: 92 % UTC
